Experiment: Cytotoxicity against HSF cells assessed as growth inhibition at 100 ug/mL incubated for 48 hrs by SRB assay relative to control
Type: toxicity, cell-based
Details: human, at 100 µg/mL, read-out: GI
Label rule, in plain words: inhibition at 48 h, 100 ug/mL of 20% and up is 1, under 20% is -1.

{"columns": ["structure_smiles", "group_label"],
 "data": [
  ["COc1cccc(/C=N/NC(=O)c2nnn(-c3ccc([N+](=O)[O-])cc3)c2C)c1OC", -1],
  ["COc1cccc(/C=N/NC(=O)c2nnn(-c3ccc(Br)cc3)c2C)c1OC", 1],
  ["COc1cc(/C=N/NC(=O)c2nnn(-c3ccc(F)cc3)c2C)cc(OC)c1OC", 1],
  ["COc1ccc(/C=N/NC(=O)c2nnn(-c3ccc(F)cc3)c2C)cc1OC", 1],
  ["COc1cc(/C=N/NC(=O)c2nnn(-c3ccc([N+](=O)[O-])cc3)c2C)cc(OC)c1OC", 1],
  ["COc1cc(/C=N/NC(=O)c2nnn(-c3ccc(Br)cc3)c2C)cc(OC)c1OC", 1],
  ["Cc1c(C(=O)N/N=C/c2ccccc2)nnn1-c1ccc(Br)cc1", -1],
  ["Cc1c(C(=O)N/N=C/c2ccccc2)nnn1-c1ccc(F)cc1", -1],
  ["COc1cccc(/C=N/NC(=O)c2nnn(-c3ccc(F)cc3)c2C)c1OC", -1],
  ["COc1cc(/C=N/NC(=O)c2nnn(-c3ccc(Cl)cc3)c2C)cc(OC)c1OC", 1]
]}

---

System: A-375
Test: Antiproliferative activity against human A-375 cells assessed as growth inhibition at 100 ug/mL incubated for 48 hrs by SRB assay relative to control
Format: functional
Conditions: read-out: GI
Each entry below lists one item and its recorded inhibition of growth at 100 µg/mL value.

{"columns": ["structure_smiles", "inhibition of growth at 100 µg/mL / %"],
 "data": [
  ["Cc1c(C(=O)N/N=C/c2ccccc2)nnn1-c1ccc(Br)cc1", 72],
  ["Cc1c(C(=O)N/N=C/c2ccccc2)nnn1-c1ccc(F)cc1", 42],
  ["COc1cccc(/C=N/NC(=O)c2nnn(-c3ccc(F)cc3)c2C)c1OC", 71],
  ["COc1ccc(/C=N/NC(=O)c2nnn(-c3ccc(Br)cc3)c2C)cc1OC", 77],
  ["COc1cc(/C=N/NC(=O)c2nnn(-c3ccc([N+](=O)[O-])cc3)c2C)cc(OC)c1OC", 50],
  ["COc1cccc(/C=N/NC(=O)c2nnn(-c3ccc(Br)cc3)c2C)c1OC", 73],
  ["COc1cc(/C=N/NC(=O)c2nnn(-c3ccc(Br)cc3)c2C)cc(OC)c1OC", 60],
  ["COc1cc(/C=N/NC(=O)c2nnn(-c3ccc(Cl)cc3)c2C)cc(OC)c1OC", 63],
  ["COc1cccc(/C=N/NC(=O)c2nnn(-c3ccc([N+](=O)[O-])cc3)c2C)c1OC", 75],
  ["COc1ccc(/C=N/NC(=O)c2nnn(-c3ccc(F)cc3)c2C)cc1OC", 82]
]}

---

Tested on: A-375
Experiment: Antiproliferative activity against human A-375 cells assessed as growth inhibition at 100 ug/mL incubated for 48 hrs by SRB assay relative to control
Type: functional
Conditions: read-out: GI
Here the recorded inhibition of growth at 100 µg/mL is given for each entry.
observed_property: inhibition of growth at 100 µg/mL (%)

{"columns": ["structure_smiles", "measurement_target", "result"],
 "data": [
  ["COc1cc(/C=N/NC(=O)c2nnn(-c3ccc(F)cc3)c2C)cc(OC)c1OC", "A-375", 85],
  ["COc1cccc(/C=N/NC(=O)c2nnn(-c3ccc(Cl)cc3)c2C)c1OC", "A-375", 85],
  ["COc1cccc2c1C(=O)c1c(O)c3c(c(O)c1C2=O)C[C@@](O)(C(=O)CO)C[C@@H]3O[C@H]1C[C@H](N)[C@H](O)[C@H](C)O1", "A-375", 52]
]}
